- procedure_summary: Compound was evaluated for its activity against PTP1B (a tyrosine phosphatase)
Reported Activity is given for each of the following compounds.

compound	Activity
O=C(NC1CCCCC1)C(c1ccnc2ccccc12)N(CCc1c[nH]c2ccccc12)C(=O)c1ccc(CP(=O)(O)O)cc1 (stereo not drawn)	> 160 µM
O=C(O)CNC(=O)C(c1nccs1)N(Cc1ccc2c(c1)OCO2)C(=O)c1ccc(CP(=O)(O)O)cc1 (stereo not drawn)	> 96 µM
CC(C)=CCCC(C)C(C(=O)NC1CCCCC1)N(CCc1c[nH]c2ccccc12)C(=O)c1ccc(CP(=O)(O)O)cc1 (stereo not drawn)	61 µM
